Where these numbers come from: patent US5380825A

- System: antisera to AZT, Rabbit 2 (immunized with AZT-3-V:BSA)
- measurement-protocol: FPIA comparison of tracers, antiserum of Rabbit 2 (Table 1)
- Type: binding
- study-conditions: concentration of AZT giving 50% reduction in polarization of this tracer relative to 0 tube
Field: ED50 AZT. Provide a value for each of the compounds that follow.
Answers are plain numbers, in µg/mL.

Q: Given Cc1cn([C@H]2C[C@H](N=[N+]=[N-])[C@@H](CO)O2)c(=O)n(CCCNc2nc(Cl)nc(Nc3ccc4c(c3)C(=O)OC43c4ccc(O)cc4Oc4cc(O)ccc43)n2)c1=O , state its recorded ED50 AZT.
Ans: 4.0

API: the following record is the query input.
Q: State the recorded ED50 AZT for this entry: COc1nc(NCCn2c(=O)c(C)cn([C@H]3C[C@H](N=[N+]=[N-])[C@@H](CO)O3)c2=O)nc(Nc2ccc3c(c2)C(=O)OC32c3ccc(O)cc3Oc3cc(O)ccc32)n1
Ans: 4.9
